Hello, the source for this data is patent US20150291625A1, in case you need it.

# assaySystem: D1 (Homo sapiens, UniProt P21728)
# Sequence (P21728 whole entry): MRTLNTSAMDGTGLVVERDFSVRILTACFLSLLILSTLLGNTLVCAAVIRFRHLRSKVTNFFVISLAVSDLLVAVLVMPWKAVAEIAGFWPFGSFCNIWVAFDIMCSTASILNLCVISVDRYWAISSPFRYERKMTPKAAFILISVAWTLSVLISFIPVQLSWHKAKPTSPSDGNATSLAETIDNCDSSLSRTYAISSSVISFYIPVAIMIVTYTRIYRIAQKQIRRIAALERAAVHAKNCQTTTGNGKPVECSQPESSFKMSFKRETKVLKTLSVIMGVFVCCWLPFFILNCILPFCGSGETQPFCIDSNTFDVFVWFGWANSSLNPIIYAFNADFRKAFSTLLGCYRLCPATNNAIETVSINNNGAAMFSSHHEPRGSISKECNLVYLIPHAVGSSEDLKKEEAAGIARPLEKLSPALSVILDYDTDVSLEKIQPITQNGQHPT
# testDetails: D1 cAMP HTRF assay (HEK293T/hD1#1 stable cell line)
# strict inequality: EC50 < 800 nM yields t, everything else yields f

query: Quick check: does Cc1cc(Oc2nccc3occ(Br)c23)ccc1-c1c(C)ncc(=O)n1C have EC50 under 800 nM?
result: t

query: Quick check: does Cc1cc(Oc2nccc3occc23)ccc1-c1c(C)cnnc1C (single isomer, unassigned) [Example 14] have EC50 under 800 nM?
result: f

query: Quick check: does Cc1cc(Oc2nccc3occc23)ccc1-c1c(C)ncn1C have EC50 under 800 nM?
result: t

query: Quick check: does COc1cc(Oc2nccc3occc23)ccc1-c1cc(N)cnc1C have EC50 under 800 nM?
result: f
